In this section, each of the compounds is paired with its reported pIC50.
# test.system: PI3Kδ (p110δ/p85α) Recombinant Human Protein (Homo sapiens (Human), UniProt O00329)
# Sequence (O00329 whole entry): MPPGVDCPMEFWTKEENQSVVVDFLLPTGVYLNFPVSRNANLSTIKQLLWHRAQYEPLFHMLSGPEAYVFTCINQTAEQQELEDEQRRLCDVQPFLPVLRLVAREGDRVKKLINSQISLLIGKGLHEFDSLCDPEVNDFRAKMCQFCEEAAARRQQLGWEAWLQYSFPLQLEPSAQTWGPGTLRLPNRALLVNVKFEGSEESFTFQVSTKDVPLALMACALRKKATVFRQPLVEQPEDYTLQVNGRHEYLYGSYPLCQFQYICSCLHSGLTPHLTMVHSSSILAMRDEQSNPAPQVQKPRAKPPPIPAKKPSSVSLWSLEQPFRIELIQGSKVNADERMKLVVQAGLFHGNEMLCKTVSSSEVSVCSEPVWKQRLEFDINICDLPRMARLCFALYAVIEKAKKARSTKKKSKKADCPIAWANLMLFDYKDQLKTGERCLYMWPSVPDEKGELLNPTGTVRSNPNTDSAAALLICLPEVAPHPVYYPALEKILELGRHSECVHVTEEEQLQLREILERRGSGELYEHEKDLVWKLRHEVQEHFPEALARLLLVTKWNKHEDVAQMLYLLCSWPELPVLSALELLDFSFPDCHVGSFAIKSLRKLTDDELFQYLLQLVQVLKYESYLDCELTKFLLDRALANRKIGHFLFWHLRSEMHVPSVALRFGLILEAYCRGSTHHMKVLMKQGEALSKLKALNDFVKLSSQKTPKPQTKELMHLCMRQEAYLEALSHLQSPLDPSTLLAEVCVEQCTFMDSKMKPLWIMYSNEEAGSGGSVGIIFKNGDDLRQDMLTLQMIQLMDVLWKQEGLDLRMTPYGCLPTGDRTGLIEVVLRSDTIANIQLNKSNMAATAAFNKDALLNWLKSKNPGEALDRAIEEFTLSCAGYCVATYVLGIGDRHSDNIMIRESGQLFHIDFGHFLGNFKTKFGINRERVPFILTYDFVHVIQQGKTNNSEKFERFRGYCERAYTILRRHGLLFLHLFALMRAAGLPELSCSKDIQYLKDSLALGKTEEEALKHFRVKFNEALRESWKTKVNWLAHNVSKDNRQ
# Sequence (P27986 whole entry partner): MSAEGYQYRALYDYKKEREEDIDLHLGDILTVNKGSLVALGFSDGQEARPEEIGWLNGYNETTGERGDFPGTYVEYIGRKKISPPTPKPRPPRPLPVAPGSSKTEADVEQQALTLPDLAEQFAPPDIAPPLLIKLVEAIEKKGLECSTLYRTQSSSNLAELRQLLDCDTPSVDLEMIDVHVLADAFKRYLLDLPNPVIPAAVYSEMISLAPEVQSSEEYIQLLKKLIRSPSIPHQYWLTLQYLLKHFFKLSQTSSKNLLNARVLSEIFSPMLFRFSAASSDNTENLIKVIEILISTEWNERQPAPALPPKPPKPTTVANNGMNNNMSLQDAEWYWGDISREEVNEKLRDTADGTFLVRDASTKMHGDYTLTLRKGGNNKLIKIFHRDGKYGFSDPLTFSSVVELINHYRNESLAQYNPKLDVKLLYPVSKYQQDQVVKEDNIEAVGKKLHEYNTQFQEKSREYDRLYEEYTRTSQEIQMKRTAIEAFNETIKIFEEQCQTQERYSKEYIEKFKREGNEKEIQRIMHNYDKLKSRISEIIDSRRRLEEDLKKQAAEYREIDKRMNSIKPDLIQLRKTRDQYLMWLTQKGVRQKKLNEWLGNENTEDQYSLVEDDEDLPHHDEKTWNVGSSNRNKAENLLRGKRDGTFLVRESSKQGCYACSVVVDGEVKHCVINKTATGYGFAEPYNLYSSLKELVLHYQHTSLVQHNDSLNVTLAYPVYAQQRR
# assay.details: PI3Kδ Scintillation Proximity Assay
# test.conditions: 20 μM PIP2, 2 μM ATP, 3.4 nM PI3Kδ, 120 min, room temperature
pIC50: −log10 of the molar value. Where a name gives a salt, the structure may show the parent alone.

[[record]]
compound = "Cc1ccc(S(=O)(=O)NC23CCC(CO)(C2)C3)cc1-c1cnc(N)c(-n2cncn2)n1 [Example 25, trifluoroacetate salt]"
test_system = "PI3Kδ (p110δ/p85α) Recombinant Human Protein (Homo sapiens (Human), UniProt O00329)"
recorded_value = "≥ 7.00"

[[record]]
compound = "[2H]C([2H])([2H])c1ccc(S(=O)(=O)NC23CCC(C#N)(C2)C3)cc1-c1cnc(N)c(-c2ncco2)n1 [Example 71, trifluoroacetate salt]"
test_system = "PI3Kδ (p110δ/p85α) Recombinant Human Protein (Homo sapiens (Human), UniProt O00329)"
recorded_value = "≥ 6.30"


Let us move to another entry and its pIC50.
Query: GET /values?readout=pIC50&item= [2H]C([2H])([2H])c1ccc(S(=O)(=O)NC23CC(CO)(C2)C3)cc1-c1cnc(N)c(-n2nccn2)n1 [Example 51, Trifluoroacetate Salt]
Response: > 5.70

---

# test.system: PI3Kδ (p110δ/p85α) Recombinant Human Protein (Homo sapiens (Human))
# assay.details: PI3Kδ Scintillation Proximity Assay
# test.conditions: 20 μM PIP2, 2 μM ATP, 3.4 nM PI3Kδ, 120 min, room temperature
Counter-ions that a name gives are not always drawn.
experimental.endpoint: IC50

# example entries with known answers
[[record]]
molecule = "Cc1ccc(S(=O)(=O)NC23CCC(C#N)(C2)C3)cc1-c1cnc(N)c(-c2cn(C)nc2C)n1 [Example 11, trifluoroacetate salt]"
test_system = "PI3Kδ (p110δ/p85α) Recombinant Human Protein (Homo sapiens (Human))"
experimental_endpoint = "IC50"
recorded_value = "≤ 500 nM"

[[record]]
molecule = "Cc1ccc(S(=O)(=O)NC23CC(C#N)(C2)C3)cc1-c1cnc(N)c(-c2nn[nH]n2)n1 [Example 36, Trifluoroacetate Salt]"
test_system = "PI3Kδ (p110δ/p85α) Recombinant Human Protein (Homo sapiens (Human))"
experimental_endpoint = "IC50"
recorded_value = "≥ 2000 nM"


Query: Given the entry Cc1ccc(S(=O)(=O)NC23CCC(O)(C2)C3)cc1-c1cnc(N)c(-n2cncn2)n1 [Example 30, Trifluoroacetate Salt] , report its measured IC50.
Response: ≤ 500 nM

---

The compounds listed here are annotated with their IC50.
# test.system: PI3Kδ (p110δ/p85α) Recombinant Human Protein (Homo sapiens (Human), UniProt O00329)
# assay.details: PI3Kδ Scintillation Proximity Assay
# test.conditions: 20 μM PIP2, 2 μM ATP, 3.4 nM PI3Kδ, 120 min, room temperature
Structures can show the parent of a compound that is named as a salt.

Recorded IC50, per entry:
[[record]]
compound = "Cc1ccc(S(=O)(=O)NC23CCC(CO)(CC2)OC3)cc1-c1cnc(N)c(-c2ccnc(C(F)(F)F)c2)n1 [Example 21, trifluoroacetate salt]"
recorded_value = "≤ 500 nM"

[[record]]
compound = "[2H]C([2H])([2H])c1ccc(S(=O)(=O)NC23CCN(CC2)C3)cc1-c1cnc(N)c(-n2cncn2)n1"
recorded_value = "≤ 100 nM"


The record that follows has no IC50 shown yet.
Query: I'd like to know its IC50. The compound in question is Cc1ccc(S(=O)(=O)NC23CCC(CO)(C2)C3)cc1-c1cnc(N)c(-c2cn(C)nc2C)n1 [Example 13, trifluoroacetate salt]
Response: ≤ 500 nM
